Listed here: items and their measured LD50.
assay: LD50 Tests; conditions: in vivo; IP single dose, CD-1 male mouse
Hi! Could you send only the number? It should be in mg/kg, unit omitted.

Example entries begin here.
compound | LD50, mg/kg
CC(CO)(CO)NCc1c2ccccc2cc2ccccc12.Cl | 160
CC(CO)(CO)NCc1c2ccccc2c(OCCO)c2ccccc12 [Example 25B] | 110
CSc1c2ccccc2c(CNC(C)(CO)CO)c2ccccc12.Cl | 100

API: the following record is the query input.
[in] Look at this compound and give its reported LD50. `CC(CO)(CO)NCc1c2ccccc2c(Cl)c2ccccc12.Cl`
[out] 250

* * *

test system: lymphocytic leukemia P388/0; experiment: Lymphocytic Leukemia P388/0 Test; type: in vivo, mouse (CD2-F1); set-up: unit: mg/kg; settings: ip days 1, 5, 9; doses on a mg/kg basis
Counter-ions that a name gives are not always drawn.
Listed here: items and their measured LD20.
Simply state the number, no unit and no words.

Example entries begin here.
compound | LD20
CC(CO)(CO)NCc1cccc2cc3ccccc3cc12 [Example 15E, hydrochloride] | 7
CSc1c2ccccc2c(CNC(C)(CO)CO)c2ccccc12.Cl | 120
CC(CO)(CO)NCc1c2ccccc2cc2ccc(Cl)cc12.Cl [Example 17C] | 150

[in] Look at this compound and give its reported LD20. `CC(CO)(CO)NCc1c2ccccc2cc2ccccc12.Cl`
[out] 150

[in] Look at this compound and give its reported LD20. CCOc1c2ccccc2c(CNC(C)(CO)CO)c2ccccc12.Cl [Example 24B]
[out] 96

[in] Look at this compound and give its reported LD20. C[C@H](O)[C@@](C)(CO)NCc1c2ccccc2cc2ccccc12 (relative stereo) [Example 30G]
[out] 180

[in] Look at this compound and give its reported LD20. CCCCOc1c2ccccc2c(CNC(C)(CO)CO)c2ccccc12.Cl [Example 44F]
[out] 120

[in] Look at this compound and give its reported LD20. CC(CO)(CO)NCc1c2ccccc2c(C#N)c2ccccc12.Cl [Example 14B]
[out] 387

[in] Look at this compound and give its reported LD20. `Cl.OCC(CO)(CO)NCc1c2ccccc2c(Cl)c2ccccc12`
[out] 440

[in] Look at this compound and give its reported LD20. CC(CO)(CO)NCc1c2ccccc2c(OCCO)c2ccccc12 [Example 25B]
[out] 67

[in] Look at this compound and give its reported LD20. CC(C)C(CO)(CO)NCc1c2ccccc2cc2ccccc12 [Example 35C]
[out] 450

* * *

test system: lymphocytic leukemia P388/0; assay: Lymphocytic Leukemia P388/0 Test; assay type: in vivo, mouse (CD2-F1); parameters: unit: mg/kg; conditions: ip days 1, 5, 9; doses on a mg/kg basis
Lab note: anything with LD20 below 200 is marked 1; values at 200 or higher are marked -1.

compound | discrete-label
CC(CO)(CO)NCc1c2ccccc2c(-n2ccnc2)c2ccccc12 [Example 29B] | 1
CCOCC(CO)(CO)NCc1c2ccccc2cc2ccccc12.Cl [Example 32C] | -1
CC(CO)(CCO)NCc1c2ccccc2cc2ccccc12.CS(=O)(=O)O (stereo not drawn) [Example 36G] | 1
CC(CO)(CO)NCc1c2ccccc2c(CCCl)c2ccccc12 [Example 4C] | 1
CC(CO)(CO)NCc1c2ccccc2c(CO)c2ccccc12 [Example 6] | 1
COc1c2ccccc2c(CNC(C)(CO)CO)c2ccccc12.Cl [Example 13B] | 1

[in] hey, is LD20 for CC(CO)(CO)NCc1c2ccccc2c(SCCO)c2ccccc12.Cl [Example 20B] lower than 200 or not?
[out] -1

[in] hey, is LD20 for COCCOc1c2ccccc2c(CNC(C)(CO)CO)c2ccccc12 [Example 27B] lower than 200 or not?
[out] 1
